Values from ChEMBL document CHEMBL5303304

test system: HEK-293T; assay: Incucyte cell viability with HEK293T; assay type: toxicity, cell-based; settings: human, 6 h, 10 µM, compound concentration 10 uM, replicate number 1; note: unitless GR value; below 1 slowed growth and below 0 cell loss
MEASURED_PARAMETER: Growth Rate

Cc1nnsc1C(=O)Nc1ccc(-n2nc(C(F)(F)F)cc2C(F)(F)F)cc1
0.1
COc1ccc(-c2cc3c(C)nc(N)nc3n([C@H]3CC[C@H](OCCO)CC3)c2=O)cn1
-0.19
O=C(Nc1ccc(Oc2ccc(Cl)cc2)c(Cl)c1)c1cc(I)cc(I)c1O [RAFOXANIDE]
-0.37
C=CC(=O)Nc1cc(Nc2nccc(-n3cc(CN(C)C)c(-c4ccccc4)n3)n2)c(OC)cc1N1CCOCC1
0.45
Cc1ccc(NC(=O)c2ccc3c(c2)OCCO3)cc1NC(=O)c1ccc2nc(OCCN3CCCC3)ccc2c1
-0.91
O=C(NCc1ccc(F)cc1)C1CCN(S(=O)(=O)c2cc(Cl)cc(Cl)c2)CC1
0.66
Cc1c(-c2c(F)cc(C(N)=O)c3[nH]c4c(c23)CC[C@H](C(C)(C)O)C4)cccc1-n1c(=O)c2cccc(F)c2n(C)c1=O
-0.93
CC(C)(C)c1ccc2c(c1)CC[C@H]2NC(=O)Nc1cccc2[nH]ncc12
0.75
COC[C@@H](C)N[C@H]1CC[C@H](Nc2cc(-c3cccc(NCC4(C#N)CCOCC4)n3)c(Cl)cn2)CC1
-0.07
CC(=O)Nc1nc2c(Oc3cc(-c4ccc(C(F)(F)F)cc4)ncn3)cccc2s1
0.63
O=C(Nc1ccc(C(O)(C(F)(F)F)C(F)(F)F)cc1)c1ccc(C(F)(F)F)cc1
-0.31
C1=Cc2ccccc2C(=C2CCN(CCCCc3nn[nH]n3)CC2)c2ccccc21
0.94
C[C@@]1(Cc2ccc(C#N)cc2)C(=O)N(c2cc(Cl)cc(Cl)c2)c2ncc(C(=O)NC3(c4nc(C5CCC5)no4)CC3)n21
0.51
C=C1/C(=C\C=C2/CCC[C@]3(C)[C@@H]([C@H](C)CCCC(C)(C)O)CC[C@@H]23)C[C@@H](O)C[C@@H]1O
0.8
O=C1CSC(=O)N1C(CCc1ccncc1)COc1ccc(-c2cccc([N+](=O)[O-])c2)cc1 (stereo unspecified)
-0.06
CC(C)(O)[C@H]1CC[C@H](Nc2ccc3ncc(-c4cccc(C(F)(F)F)c4)n3n2)CC1
-0.61
